# protocol_details: physchem
# study_conditions: pH 7.4 buffer
# Lookup of reported solubility thermodynamic keyed by entry
measured_attribute: solubility thermodynamic

>>> result("O=C(NCC12CC3CC(CC(C3)C1)C2)c1cc(CN2CCNCC2)ccc1Cl")
"74.1 µM"
>>> result("CNC(=O)c1ccc(CN2CCC(c3ccc(C(=O)Nc4ccccc4N)cc3)CC2)cc1")
"4.8 µM"
>>> result("CS(=O)(=O)Cc1cc(N2CC3CCC(C2)O3)nc(-c2ccc3[nH]ccc3c2)n1")
"1.5 µM"
>>> result("CCOc1ccc2ccc(=O)oc2c1")
"1000 µM"
>>> result("CC(C)N1CCN(Cc2cnc(-c3ccc(C(=O)Nc4ccccc4N)cc3)c(C#N)c2)CC1")
"1350 µM"
>>> result("O=C(Cn1cnc2ccccc21)c1ccc(Br)cc1")
"129 µM"
>>> result("COc1ccc(Nc2ncnc3cccc(OC4CCN(C)CC4)c23)cc1Cl")
"87.1 µM"
>>> result("CCc1cc(NC(=O)Cc2ccc(Oc3ccnc4cc(OC)c(OC)cc34)cc2OC)[nH]n1")
"11 µM"
>>> result("Cc1cc2c(F)c(Oc3ncnn4cc(OC[C@@H](C)OC(=O)[C@H](C)N)c(C)c34)ccc2[nH]1 [BRIVANIB ALANINATE]")
"37.2 µM"
>>> result("c1ccc2c(c1)[nH]c1cnccc12")
"339 µM"
>>> result("Clc1cccc(Cl)c1-c1nnc2cccc(Cl)n12")
"115 µM"
>>> result("CCOC(=O)c1nn(-c2ccccc2)c(=O)c2c(N)scc12")
"6.2 µM"
>>> result("C[C@H](NC1=NC(=O)C(C)(C(F)(F)F)S1)c1ccccc1F (stereo not given in full)")
"339 µM"
>>> result("CCCN(CCO)CCCOc1ccc2c(Nc3cc(CC(=O)Nc4cccc(F)c4F)[nH]n3)ncnc2c1")
"5.8 µM"
>>> result("CNC(=O)[C@@H](C)N(C)Cc1cc2c(Nc3cccc(Cl)c3F)ncnc2cc1OC")
"646 µM"
>>> result("CNC(=O)c1ccc(CC(=O)N(C)C2CCN(Cc3ccc(C(F)(F)F)cc3)CC2)cc1")
"107 µM"
>>> result("O=C(N[C@@H](Cc1ccccc1)[C@@H](O)C(=O)N1C[C@@H](O)[C@@H](O)C1)c1cc2cc(Cl)ccc2[nH]1")
"436 µM"
>>> result("CNc1cccc(CCOc2ccc(C[C@H](NC(=O)c3ccccc3Cl)C(=O)O)cc2)n1")
"398 µM"
>>> result("O=C1NC(=O)C(c2cnc3ccccn23)=C1c1cn2c3c(cccc13)CN(C(=O)N1CCOCC1)CC2")
"0.6 µM"
>>> result("C=CCOc1cc(-c2cccc3c(=O)cc(N4CCOCC4)oc23)ccc1NC(=O)CN1CCOCC1")
"4.7 µM"

###

# protocol_details: in vitro
# study_conditions: SD, HW or BN, rat, plasma
measured_attribute: fraction unbound at 5 h

>>> result_number("COc1cc(C(C)C)c(Oc2cnc(NC(CO)CO)nc2N)cc1I")
0.028
>>> result_number("CC(O)(C(=O)Nc1cccc(S(=O)(=O)c2ccccc2)c1)C(F)(F)F (centres undefined)")
0.0594
>>> result_number("O=c1n(CCCN2CCN(c3cccc(Cl)c3)CC2)nc2ccccn12 [TRAZODONE]")
0.124
>>> result_number("O=C(c1ccccc1)N1CCC2(CCN(Cc3cccc(Cl)c3)CC2)CC1")
0.166
>>> result_number("COc1cc2c(cc1OC)CN(CCc1ccc(NC(=O)c3cccc4c(=O)c5cccc(OC)c5[nH]c34)cc1)CC2")
0.0179
>>> result_number("CC(C)(C)OC(=O)NC[C@H]1CC[C@H](CNC(=O)c2ccnc(-c3ccccc3)c2)CC1")
0.0095
>>> result_number("CN(C(=O)Cc1ccc(-n2cnnn2)cc1)C1CCN(Cc2ccc(C(F)(F)F)cc2)CC1")
0.0606
>>> result_number("N=C(N)c1ccc2nc(-c3cccc(-c4ccccc4)c3O)[nH]c2c1")
0.0139
>>> result_number("O=C(c1c2ccccc2cc2ccccc12)N1CCC(N2CCC[C@@H](C(=O)N3CCOCC3)C2)CC1")
0.266
>>> result_number("CC(=O)Nc1nc2c(Oc3cc(-c4ccc(C(F)(F)F)cc4)ncn3)cccc2s1 [AMG-517]")
0.002
>>> result_number("Cc1nc(C)c(-c2ccc([C@H]3CC[C@H](CC(=O)NC(C)(C)C(=O)O)CC3)cc2)nc1C(N)=O")
0.0251
>>> result_number("c1ccc2nc(COc3ccc(-c4n[nH]cc4-c4ccncc4)cc3)ccc2c1")
0.0018
>>> result_number("c1ccc([C@H]([C@@H](c2ccccc2)N2CCCC2)N2CCCC2)cc1")
0.339
>>> result_number("Cc1ccc(S(=O)(=O)NCCSc2nnnn2-c2ccc(C(N)=O)cc2)cc1")
0.19
>>> result_number("N#Cc1cc(S(=O)(=O)Nc2ncns2)ccc1Oc1ccc(C(F)(F)F)cc1-c1ccnnc1")
0.0209
>>> result_number("COc1ccc(S(=O)(=O)N2CC(C)N(S(=O)(=O)c3ccc(OC)cc3)CC2C)cc1 (centres undefined)")
0.0139
>>> result_number("C[C@H]1CN(Cc2cc(Cl)ccc2OCC(=O)O)CCN1C(=O)Cc1ccc(Cl)cc1")
0.0383
>>> result_number("c1ccc2[nH]c(CCc3nc4ccccc4[nH]3)nc2c1")
0.201
>>> result_number("O=C(Cc1ccc(Cl)c(C(F)(F)F)c1)Nc1cccc2c(=O)n(CCO)ccc12")
0.072
>>> result_number("Cc1cc(F)ccc1Oc1cccc2c(=O)cc(N3CCOCC3)[nH]c12")
0.0854
>>> result_number("Cc1ccc(S(=O)(=O)Nc2c(C(=O)N[C@@H](C)C(C)(C)C)c(C)nn2C2CCCC2)cc1")
0.0268
>>> result_number("Cc1nn(-c2ccccc2)c(NC(=O)NS(=O)(=O)c2ccc(Cl)cc2)c1C#N")
0.0175
>>> result_number("O=C(O)CNC(=O)c1ncccc1O")
0.24
>>> result_number("Cc1nn(C2CCOCC2)c(NS(=O)(=O)c2ccc(C3CC3)cc2)c1C(=O)N[C@@H](C)C(C)(C)C")
0.11
>>> result_number("O=C(c1cc(Cc2n[nH]c(=O)c3ccccc23)ccc1F)N1CCCNCC1")
0.597
>>> result_number("O=c1cc(N2CCOCC2)nc2n(Cc3cccc(Cl)c3)ccn12")
0.11
>>> result_number("COc1ccc(C2CNC(=O)C2)cc1OC1CCCC1 (centres undefined) [ROLIPRAM]")
0.329
>>> result_number("COc1ccc(NC(=O)c2ccc(C[S+](C)[O-])c3ccccc23)c(C(=O)NCC2CCOCC2)n1 (centres undefined)")
0.0437
>>> result_number("O=C1Nc2nc(-c3c(O)cccc3OCC3CC3)cc([C@@H]3CCCNC3)c2CO1")
0.124
>>> result_number("COc1ccc(NC(=O)c2ccnc3ccccc23)c(C(=O)NCC2CCC2)n1")
0.0009
>>> result_number("Nc1[nH]ncc1-c1cc(Cl)ccc1Oc1cc(F)c(S(=O)(=O)Nc2cscn2)cc1Cl [PF-05089771]")
0.0055
>>> result_number("CCOc1noc2cc(OCCC3CCN(c4ccc(C)nn4)CC3)ccc12")
0.0015
>>> result_number("CNCCC=C1c2ccccc2CCc2ccccc21 [NORTRIPTYLINE]")
0.132
>>> result_number("CC(C)(N)C(=O)N[C@H](COCc1ccc(F)cc1F)C(=O)N1CCC2=NN(CC(F)(F)F)C(=O)[C@]2(Cc2ccccn2)C1")
0.511
>>> result_number("CCC[C@@H](c1ccc(C(=O)O)c(Oc2cccc(Cl)c2)c1)N1CCC[C@H](n2cc(C)c(=O)[nH]c2=O)C1")
0.0179
>>> result_number("CCOc1cc(CN2CCC(NC(=O)c3cncc(C)c3)CC2)cc(OCC)c1-c1ccc(F)cc1")
0.0119
>>> result_number("COc1cccc2sc(NC(=O)c3ccccc3)nc12")
0.0101
>>> result_number("Cn1cc(-c2ccncc2)c(-c2ccc(OCc3ccc4ccccc4n3)cc2)n1 [MARDEPODECT]")
0.0017
>>> result_number("O=C(c1ccc(-c2ccc(Cl)cc2)o1)N(Cc1ccccn1)c1ccc(N2CCNCC2)cc1")
0.0219

// data source = ChEMBL document CHEMBL3301361
